Test system: P. falciparum stage V gametocytes
Parameters: BacTiter-Glo ATP luminescence viability of purified stage V gametocytes in 384-well plates, per cent inhibition versus DMSO
assay setup: 48 h, 5 µM; inhibitor
Hit rate of the full screen: of about 13,000 compounds, about 3,200 (25%) showed an effect of 50% or more. This is one part of the list.

[
  {
    "compound": "O=C(c1cc(-c2ccccc2O)on1)N1CCN(C(c2ccccc2)c2ccccc2)CC1",
    "% Inhibition [%]": 18.53
  },
  {
    "compound": "COc1cc(NC(=O)c2ccc3c(=O)n(Cc4ccccc4)c(=S)[nH]c3c2)cc(OC)c1OC",
    "% Inhibition [%]": 26.78
  },
  {
    "compound": "CC(=O)Nc1nc(C)c(-c2csc(Nc3ccc(Cl)cc3)n2)s1",
    "% Inhibition [%]": -35.56
  },
  {
    "compound": "O=C(CC1CCCCC1)NCC(NCCCNc1cc(=O)c2ccccc2[nH]1)c1cc(Br)cc(Br)c1 (centres unmarked)",
    "% Inhibition [%]": -37.31
  },
  {
    "compound": "CC(C)C[C@H](NC(=O)OC(C)(C)C)C(=O)Nc1ccc(Cc2ccc(NC(=O)[C@H](CC(C)C)NC(=O)OC(C)(C)C)cc2)cc1",
    "% Inhibition [%]": -6.979
  },
  {
    "compound": "CCOC(=O)N[C@@H]1CN[C@@H](C#Cc2cc3c(Nc4ccc(OCc5cccc(F)c5)c(Cl)c4)ncnc3s2)C1",
    "% Inhibition [%]": -37.93
  },
  {
    "compound": "Nc1nc(N)c2c(Cc3ccc(Br)cc3)cccc2n1",
    "% Inhibition [%]": 14.7
  },
  {
    "compound": "Clc1ccc(Nc2nc(-c3ccccn3)cs2)nc1",
    "% Inhibition [%]": 114
  }
]
